# System Under Test: human cannabinoid receptor 1 (huCB1), full length, expressed on cells (human, UniProt P21554 1-472)
# Sequence (P21554 whole entry): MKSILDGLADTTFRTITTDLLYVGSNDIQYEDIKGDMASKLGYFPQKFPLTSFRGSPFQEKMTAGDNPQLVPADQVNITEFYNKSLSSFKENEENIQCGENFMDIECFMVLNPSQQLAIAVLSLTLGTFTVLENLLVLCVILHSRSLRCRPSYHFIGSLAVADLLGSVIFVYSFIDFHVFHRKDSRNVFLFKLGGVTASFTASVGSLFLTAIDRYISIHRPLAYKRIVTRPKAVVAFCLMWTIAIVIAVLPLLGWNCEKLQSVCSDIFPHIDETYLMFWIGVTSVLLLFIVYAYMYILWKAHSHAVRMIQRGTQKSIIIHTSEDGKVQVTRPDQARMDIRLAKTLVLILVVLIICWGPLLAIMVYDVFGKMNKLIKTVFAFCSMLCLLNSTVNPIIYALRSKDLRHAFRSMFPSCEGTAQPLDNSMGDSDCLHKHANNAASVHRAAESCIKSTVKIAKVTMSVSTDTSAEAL
# Test Description: cell-based or functional assay
Listing of entries alongside the reported n = 1 IC50 (nM), cAMP antagonist assay.

{"Binder": "LIBC527827-1 (antibody, V domains shown) VH: QVQLQESGPGLVKPSQTLSLTCTVSGGSIRRGGDYWGWIRQHPGKGLEWIGHVYQSGQTAYNPKFENRATISVKTYKNQFSLKLSSVTAADTAVYYCARNYDTLTGHSYYYYGMDVWGQGTTVTVSS VL: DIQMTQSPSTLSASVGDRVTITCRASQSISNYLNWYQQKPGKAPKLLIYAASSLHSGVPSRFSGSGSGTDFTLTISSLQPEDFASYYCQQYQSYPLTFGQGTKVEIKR", "Unit Descriptor": "nM", "n = 1 IC50 (nM), cAMP antagonist assay": 32}
{"Binder": "LIBC523661-1 (antibody, V domains shown, Expressed as IgG1 SEFL2 mAb) VH: QVQLQESGPGLVKPSQTLSLTCTVSGGSIRRGGDYWSWIRQHPGKGLEWIGHIYYEGSTKYNPSFKGRATISVNTYKNQFSLKLSSVTAADTAVYYCARDYDPVTGHSYYYYGMDVWGQGTTVTVSS VL: DIVMTQSPLSLPVTPGEPASISCRSSQSLLTSSGYNYVDWYLQKPGQSPQLLIYQGSNRASGVPDRFSGSGSGTDFTLKISRVEAEDVGVYYCRQARAIPRTFGQGTKVEIKR", "Unit Descriptor": "nM", "n = 1 IC50 (nM), cAMP antagonist assay": 5.24}

The measured values listed here are drawn from patent US20250277029A1.
